Kd by entry:
study target: T1, human dimeric EGFR (EGFR.mFc) (human)
T1 construct: Soluble dimeric EGFR construct
protocol text: SPR 37C, mAb captured by anti-human Fc, EGFR.mFc analyte
Protocol: Different concentrations of human monomeric (EGFR.mmh; SEQ ID NO:386) and dimeric (EGFR.mFc; SEQ ID NO:387) proteins were injected over the anti-EGFR monoclonal antibody captured surface at a flow rate of 50 μI/min. Antibody-antigen association was monitored for 4-5 minutes while dissociation of antigen from the captured monoclonal antibody surface was monitored for 10 min. […]
Use pM as the unit, but write only the number.

Please review the following examples before continuing.
Query :: Any idea what its Kd is? The binder is H1H141P (antibody, human IgG1, V domains shown, Human IgG1 Fc (H1H)) VH: QVQLQESGPGLVKPSQTLSLTCTVSGGSISSGDYYWNWIRQYPGKGLELIGYIYYSGITYYNPSLKSRLTISLDTSKNQFSLKLSSVTAADTAVYYCARDRVELRAFDIWGQGTMVTVSS VL: DIQMTQSPSSLSASVGDRVTITCQASQDISNYLNWYQQKPGKAPKLLINDASNLETGVPSRFSGSGSGTDFTFTISSLQPEDIATYYCQHYDSLPLTFGQGTRLEIK
Result :: 8.31

Query :: What Kd value was documented for this binder, H1H153P (antibody, human IgG1, V domains shown, Human IgG1 Fc (H1H)) VH: QVQLVESGGGVVQPGKSLRLSCAASGFTFSIYGMNWVRQAPGKGLDWVAVISDDGSNKDYVDSVRGRFTISRDNSKNTLYLQMNSLSAEDTAVYYCAKDRITGTHYYGLDVWGQGTTVTVSS VL: DIQMTQSPSSLSASVGDRITITCRASQDIANYLAWFQQKPGNAPTSLIYAASILQSGVPSKFSGSGSGTDFTLTITSLQPEDFASYYCQQYNRKPWTFGRGTKVEIK ?
Result :: 35.1

Now look at this one.
Query :: Recorded Kd of H1H163P (antibody, human IgG1, V domains shown, Human IgG1 Fc (H1H)) VH: QVQLVESGGGVVQPGRSLRLSCAASGFTFSNYGMHWVRQAPGKGLEWVTLIEHDGSNKNYVDSVKGRFTISRDNSKNTLYLQMNSLRVEDTAVYYCAKDRITGTPWYGMDVWGQGTTVTVSS VL: DIQMTQSPSSLSASVGDRVTITCRASQDIADYLAWFQQKPGKAPKSLIFAASSLESWVPLKFSGSGSGTDFTLTISSLQPEDFATYYCQQYNRFPITFGQGTRLEIK , please.
Result :: 1.17
